Reference for the values: patent US20260028418A1

The reader will find reported absorbance values listed item by item below.
target: T1, HER2-ECD-Fc (human, UniProt P04626 23-652); assay: ELISA on HER2-ECD-Fc; antibody at 5 × 10^-2 µg/mL
T1 construct: extracellular domain; Produced in FreeStyle 293F cells; also called HER2-ECD Fc fusion protein
READOUT_KIND: absorbance

| BINDER | READOUT_KIND | NUMBER |
| --- | --- | --- |
| hz2G10 (antibody, V domains shown, Humanized antibody, detected with anti-human IgG-HRP; Only the variable domains are tied to the name; also called humanized 2G10 antibody) VH: EVQLVESGGGLVQPGGSLRLSCAASGFTFSDYYMYWVRQAPGKGLEWVAYINSGGGSTYYPDTVKGRFTISRDNAKNSLYLQMNSLRAEDTAVYYCAREALYDYDYAMDYWGQGTTVTVSS VL: DIVMTQSPLSLSVTPGQPASISCKSSQSLLYSNGKTYLNWLLQKPGQSPQRLIYLVSKLDSGVPDRFSGSGSGTDFTLKISRVEAEDVGVYYCVQGTHFPLTFGGGTKVEIK | absorbance | 1.16 |
| 24D3 (antibody, V domains shown) VH: EVKLVESGGGLVKPGGSLKLSCAASGFTFSSCAMSWVRQTPEKRLEWVATISGGGSYTYYPDSVKGRFTISRDNAKNTLYLQMSSLRSEDTAMYYCARHGGYESWFPYWGQGTLVTVSA VL: DIVMTQSPLSLPVSLGDQASISCRSSQSLVHSNGNTYLHWYLQKPGQSPKLLIYKVSNRFSGVPDRFSGSGSGTDFTLKISRVEAEDLGVYFCSQSTHVPPWTFGGGTKLEIK | absorbance | 2.76 |
| hz39D2 (antibody, V domains shown, Humanized antibody, captured as IgG by anti-human IgG in SPR; also called humanized 39D2 antibody) VH: QVQLVQSGSELKKPGASVKVSCKASGYTFTNYGVNWVRQAPGQGLEWMGWINTHTGEPTYAEEFKGRFVFSLDTSVSTAYLQISSLKAEDTAVYYCARDDYYVRVDYWGQGTTVTVSS VL: DIQMTQSPSSLSASVGDRVTITCKASQDINSYLSWFQQKPGKAPKTLIYRANRLVDGVPSRFSGSGSGQDYTLTISSLQPEDFATYYCLQYDEFPWTFGQGTKVEIK | absorbance | 2.92 |
| 1G3 (antibody, V domains shown) VH: EVQLQQSGAELVKPGASVKLSCTASDFNIVDTYMHWVKQRPEQGLEWIGRIDPANGYTRYDPNFQGKATITADTSSNTAYLQLSSLTSEDTAVYYCARYYYGFYAMDYWGQGTTVTVSS VL: DIVMTQSHKFMSTSVGDRVSITCKASQDVSTAVAWYQQKPGQSPKLLIYSASYRYTGVPDRFTGSGSGTDFTFTISSVQAEDLAVYYCQQHYSTPPTFGGGTKLELK | absorbance | 2.79 |
| hz8G11 (antibody, V domains shown, Humanized antibody, detected with anti-human IgG-HRP; also called humanized 8G11 antibody) VH: QVQLVQSGQEVKKPGASVKVSCKASGYSFTGYYMHWVRQAPGQGLEWIGHINPNNGGTSYNQKFKGRTTLTVDKSISTAYMELSRLRSDDTAVYYCAREEAFAYWGQGTLVTVSS VL: DIQMTQSPSSLSASVGDRVTISCRASQDISNYLNWYQQKPGKAPKLLIYYTSRLHSGVPSRFSGSGSGTDFSLTISSLQPEDIATYYCQQGITPPWTFGGGTKVEIK | absorbance | 2.72 |
